assayed system: activated IGF-1R (Homo sapiens)
Sequence (P08069 31-1367): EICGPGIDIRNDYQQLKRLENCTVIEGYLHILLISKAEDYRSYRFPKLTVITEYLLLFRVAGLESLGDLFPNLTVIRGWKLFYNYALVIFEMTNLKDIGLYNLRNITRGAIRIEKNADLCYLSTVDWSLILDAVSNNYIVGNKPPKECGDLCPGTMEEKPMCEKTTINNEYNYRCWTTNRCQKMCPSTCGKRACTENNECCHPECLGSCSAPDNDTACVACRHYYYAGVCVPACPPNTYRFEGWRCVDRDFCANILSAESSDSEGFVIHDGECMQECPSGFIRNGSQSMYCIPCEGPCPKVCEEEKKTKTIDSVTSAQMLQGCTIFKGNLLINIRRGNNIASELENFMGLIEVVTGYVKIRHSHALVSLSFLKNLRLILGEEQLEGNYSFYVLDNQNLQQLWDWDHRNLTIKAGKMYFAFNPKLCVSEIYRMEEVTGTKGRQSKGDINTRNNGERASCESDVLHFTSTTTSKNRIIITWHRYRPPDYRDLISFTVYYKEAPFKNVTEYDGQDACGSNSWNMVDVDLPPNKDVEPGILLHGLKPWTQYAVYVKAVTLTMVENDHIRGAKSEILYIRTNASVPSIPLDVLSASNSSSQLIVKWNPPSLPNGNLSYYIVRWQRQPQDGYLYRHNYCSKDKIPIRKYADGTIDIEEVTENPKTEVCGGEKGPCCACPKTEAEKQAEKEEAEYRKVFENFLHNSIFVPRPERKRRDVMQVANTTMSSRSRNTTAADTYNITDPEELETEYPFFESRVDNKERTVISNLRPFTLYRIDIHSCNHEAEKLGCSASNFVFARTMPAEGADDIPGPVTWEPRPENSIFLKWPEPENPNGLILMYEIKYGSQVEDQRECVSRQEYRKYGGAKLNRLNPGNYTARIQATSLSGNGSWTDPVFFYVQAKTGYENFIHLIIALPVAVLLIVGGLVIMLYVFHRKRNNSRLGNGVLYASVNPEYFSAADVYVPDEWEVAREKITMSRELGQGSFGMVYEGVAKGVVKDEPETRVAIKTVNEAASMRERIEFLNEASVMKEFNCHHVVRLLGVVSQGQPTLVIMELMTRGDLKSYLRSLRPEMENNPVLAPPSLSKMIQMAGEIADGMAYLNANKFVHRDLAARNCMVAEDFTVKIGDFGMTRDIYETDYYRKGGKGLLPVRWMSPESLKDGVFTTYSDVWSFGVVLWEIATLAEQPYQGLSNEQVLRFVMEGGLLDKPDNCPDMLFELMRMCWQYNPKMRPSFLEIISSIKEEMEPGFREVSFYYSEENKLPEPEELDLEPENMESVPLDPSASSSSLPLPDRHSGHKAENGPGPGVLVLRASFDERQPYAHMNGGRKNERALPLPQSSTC
experimental details: In vitro IGF-1R enzymatic assay (ADP-Glo)
conditions: ATP 100 μM
pIC50: −log10 of the molar value.
result type: pIC50

compound: CCC(=O)N1CCN(C(=O)[C@H]2CCCN2c2nc3c(c(Nc4cc(C5CCCC5)[nH]n4)n2)CCC3)CC1 [143a]
result type: pIC50
numeric value: 6.13

a. CC(C)(C)c1cc(Nc2nc(N3CCC[C@@H]3C(=O)N3CCC(F)(F)CC3)nc3c2CCC3)n[nH]1 [142a]
b. CCN(C(=O)[C@@H]1CCCN1c1nc2c(c(Nc3cc(C(C)C)[nH]n3)n1)CCC2)c1nccs1 [145b]
c. CCN(C(=O)[C@@H]1CCCN1c1nc2c(c(Nc3cc(C(C)(C)C)[nH]n3)n1)CCC2)c1nccs1 [144b]
d. CC(C)c1cc(Nc2nc(N3CCC[C@H]3C(=O)N(C)c3nccs3)nc3c2CCC3)n[nH]1 [68b]
[ask] Hey, quick one: sort these by pIC50, largest value first please. Answer format: list of labels, ordered as asked.
[reply] d, b, a, c

----------
assayed system: FLT3 (D835Y) (Homo sapiens, UniProt P36888, D835Y)
experimental details: HotSpot kinase assay against FLT3 (D835Y)
conditions: HotSpot 33P assay, ATP 10 μM
pIC50: −log10 of the molar value.
result type: pIC50

molecule: CCC(=O)N1CCN(C(=O)[C@@H]2CCCN2c2nc3c(c(Nc4cc(C5CCCC5)[nH]n4)n2)CCC3)CC1 [143b]
pIC50: 6.73

a. CC(C)c1cc(Nc2nc(N3CCC[C@H]3C(=O)N(C)c3nccs3)nc3c2CCC3)n[nH]1 [68b]
b. CCC(=O)N1CCN(C(=O)[C@H]2CCCN2c2nc3c(c(Nc4cc(C5CCCC5)[nH]n4)n2)CCC3)CC1 [143a]
c. CCN(C(=O)[C@@H]1CCCN1c1nc2c(c(Nc3cc(C(C)C)[nH]n3)n1)CCC2)c1nccs1 [145b]
d. CC1(C(=O)N2CCC(F)(F)CC2)CCCN1c1nc2c(c(Nc3cc(C4CCCC4)[nH]n3)n1)CCC2 (racemic)
[ask] Ordering criterion: pIC50; begin with the maximum. Provide your answer as the labels ordered per the instruction.
[reply] b, a, c, d
(b: 7.85, a: 7.08, c: 6.58, d: 5.80)

----------
assayed system: activated IR (Homo sapiens, UniProt P06213)
Construct: purchased Millipore 14-803
Sequence (P06213 28-1382): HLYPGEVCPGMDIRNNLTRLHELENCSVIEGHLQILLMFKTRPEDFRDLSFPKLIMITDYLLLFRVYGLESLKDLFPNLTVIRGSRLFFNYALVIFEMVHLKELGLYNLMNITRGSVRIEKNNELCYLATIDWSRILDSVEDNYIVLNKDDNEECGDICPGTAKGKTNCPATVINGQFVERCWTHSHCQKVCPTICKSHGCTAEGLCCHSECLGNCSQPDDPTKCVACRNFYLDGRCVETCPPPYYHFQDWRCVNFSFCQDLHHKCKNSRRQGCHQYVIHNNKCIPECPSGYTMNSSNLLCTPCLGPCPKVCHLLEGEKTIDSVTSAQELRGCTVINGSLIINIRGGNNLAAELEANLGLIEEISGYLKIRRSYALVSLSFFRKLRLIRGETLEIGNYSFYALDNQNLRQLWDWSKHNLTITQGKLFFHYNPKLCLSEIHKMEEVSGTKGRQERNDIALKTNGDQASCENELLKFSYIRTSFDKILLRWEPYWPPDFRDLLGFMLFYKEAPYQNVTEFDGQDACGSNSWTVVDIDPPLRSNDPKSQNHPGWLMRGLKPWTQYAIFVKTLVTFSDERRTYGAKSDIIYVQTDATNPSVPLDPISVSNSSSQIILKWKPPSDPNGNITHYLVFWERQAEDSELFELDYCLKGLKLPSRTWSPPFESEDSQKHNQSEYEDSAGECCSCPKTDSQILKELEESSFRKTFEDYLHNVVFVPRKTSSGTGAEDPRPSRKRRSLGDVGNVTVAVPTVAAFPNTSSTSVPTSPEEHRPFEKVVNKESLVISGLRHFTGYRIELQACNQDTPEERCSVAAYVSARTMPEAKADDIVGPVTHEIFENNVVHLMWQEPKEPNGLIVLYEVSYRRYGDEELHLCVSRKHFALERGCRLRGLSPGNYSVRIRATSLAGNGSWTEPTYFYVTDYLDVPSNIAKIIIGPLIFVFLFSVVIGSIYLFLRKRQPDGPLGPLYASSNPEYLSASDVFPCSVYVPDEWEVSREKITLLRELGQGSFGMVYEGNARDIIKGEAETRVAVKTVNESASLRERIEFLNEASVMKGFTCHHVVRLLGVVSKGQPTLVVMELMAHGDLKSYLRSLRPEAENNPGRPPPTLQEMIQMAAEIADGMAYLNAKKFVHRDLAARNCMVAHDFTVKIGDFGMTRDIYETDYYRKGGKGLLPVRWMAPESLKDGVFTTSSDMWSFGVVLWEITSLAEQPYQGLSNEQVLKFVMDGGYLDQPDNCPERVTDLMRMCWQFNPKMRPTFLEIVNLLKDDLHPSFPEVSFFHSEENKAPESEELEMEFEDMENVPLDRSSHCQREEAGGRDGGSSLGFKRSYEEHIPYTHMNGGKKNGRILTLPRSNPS
experimental details: In vitro IR enzymatic assay (ADP-Glo)
Format: biochemical
conditions: compound 3 μM, ATP 50 μM
result type: inhibition at 3 µM (%)

Guide cases for inhibition at 3 µM, answers given:
compound: CC1(C)CCN(C(=O)[C@@H]2CCCN2c2nc3c(c(Nc4cc(C5CCCC5)n[nH]4)n2)CCC3)CC1 [135b]
scale unit: %
numeric value: 26
//
compound: CC(C)c1cc(Nc2nc(N3CCC[C@H]3C(=O)N3CCCC3)nc3c2CCC3)n[nH]1 [138b]
scale unit: %
numeric value: 46
//
compound: O=C([C@@H]1CCCN1c1nc2c(c(Nc3cc(C4CCCC4)[nH]n3)n1)CCC2)N1CC(F)(F)C(F)(F)C1 [110b]
scale unit: %
numeric value: 21
//
compound: CC(=O)N1CCN(C(=O)[C@@H]2CCCN2c2nc3c(c(Nc4cc(C5CCCC5)n[nH]4)n2)CCC3)CC1 [137b]
scale unit: %
numeric value: 9
//
compound: CN1CCN(C(=O)[C@@H]2CCCN2c2nc3c(c(Nc4cc(C5CCCC5)[nH]n4)n2)CCC3)CC1 [134b]
scale unit: %
numeric value: 36

I. CN(C(=O)[C@@H]1CCCN1c1nc2c(c(Nc3cc(C4CCCC4)n[nH]3)n1)CCC2)c1nccs1 [70b]
II. CC(C)c1cc(Nc2nc(N3CCC[C@H]3C(=O)N3CC(F)(F)C(F)(F)C3)nc3c2CCC3)n[nH]1 [112b]
[ask] // returns I or II , whichever has the lower inhibition at 3 µM Answer with the label corresponding to your selection.
[reply] II

I. CC1(C)CCN(C(=O)[C@H]2CCCN2c2nc3c(c(Nc4cc(C5CCCC5)n[nH]4)n2)CCC3)CC1 [141a]
II. CN(C)C(=O)[C@@H]1CCCN1c1nc2c(c(Nc3cc(C4CCOCC4)[nH]n3)n1)CCC2 [91b]
[ask] Hey, which is lower on measured inhibition at 3 µM, I or II ? Answer by stating the label of the chosen item.
[reply] II
(II: -2%, I: 47%)

I. CN(C)C(=O)[C@H]1CCCN1c1nc2c(c(Nc3cc(C4CCOCC4)[nH]n3)n1)CCC2 [91a]
II. O=C([C@@H]1CCCN1c1nc2c(c(Nc3cc(C4CCCC4)[nH]n3)n1)CCC2)N1CCC(F)(F)C1 [109b]
III. O=C([C@H]1CCCN1c1nc2c(c(Nc3cc(C4CCCC4)[nH]n3)n1)CCC2)N1CC(F)(F)C(F)(F)C1 [110a]
[ask] Would you mind ranking these compounds by ascending inhibition at 3 µM? Returns: the labels arranged in the requested order.
[reply] I, II, III
(I: 16%, II: 39%, III: 64%)

1. CC(C)c1cc(Nc2nc(N3CCC[C@@H]3C(=O)N3CCCC3)nc3c2CCC3)n[nH]1 [138a]
2. CN1CCN(C(=O)[C@@H]2CCCN2c2nc3c(c(Nc4cc(C5CCCC5)n[nH]4)n2)CCC3)CC1=O [136b]
[ask] Form: Entry with minimum inhibition at 3 µM (choose one): 1 / 2 Give the label of your selection.
[reply] 2

----------
Data export: pIC50 values recorded with Trk A (Homo sapiens).
Sequence (P04629 33-796): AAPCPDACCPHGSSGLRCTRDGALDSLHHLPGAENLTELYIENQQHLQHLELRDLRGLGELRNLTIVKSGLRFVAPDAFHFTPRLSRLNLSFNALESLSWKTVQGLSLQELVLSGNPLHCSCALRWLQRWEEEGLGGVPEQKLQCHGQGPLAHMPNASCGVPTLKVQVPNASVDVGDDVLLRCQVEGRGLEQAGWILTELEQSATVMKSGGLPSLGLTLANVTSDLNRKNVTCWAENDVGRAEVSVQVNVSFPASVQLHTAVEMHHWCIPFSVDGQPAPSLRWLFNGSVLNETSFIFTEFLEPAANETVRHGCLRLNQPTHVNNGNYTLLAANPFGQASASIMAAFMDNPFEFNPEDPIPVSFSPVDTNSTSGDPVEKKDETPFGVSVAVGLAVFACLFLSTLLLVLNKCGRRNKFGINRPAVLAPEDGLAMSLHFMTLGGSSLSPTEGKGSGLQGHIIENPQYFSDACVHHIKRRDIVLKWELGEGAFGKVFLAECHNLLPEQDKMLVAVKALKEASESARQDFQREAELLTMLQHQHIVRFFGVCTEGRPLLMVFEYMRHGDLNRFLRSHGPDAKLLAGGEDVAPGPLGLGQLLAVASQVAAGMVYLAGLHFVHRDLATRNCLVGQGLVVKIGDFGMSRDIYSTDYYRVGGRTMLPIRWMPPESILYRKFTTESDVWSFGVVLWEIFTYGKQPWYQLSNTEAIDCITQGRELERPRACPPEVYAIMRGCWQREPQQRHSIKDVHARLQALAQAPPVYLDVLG
pIC50: −log10 of the molar value.
result type: pIC50

Below, each entry is followed by its recorded pIC50 result.
molecule: CC1(C)CCN(C(=O)[C@H]2CCCN2c2nc3c(c(Nc4cc(C5CCCC5)n[nH]4)n2)CCC3)CC1 [141a]
numeric value: 6.87
//
molecule: CC(C)c1cc(Nc2nc(N3CCC[C@H]3C(=O)N3CCC(F)(F)C3)nc3c2CCC3)n[nH]1 [111b]
numeric value: 7.28
//
molecule: CN1CCN(C(=O)[C@H]2CCCN2c2nc3c(c(Nc4cc(C5CCCC5)n[nH]4)n2)CCC3)CC1=O [136a]
numeric value: 6.63
//
molecule: O=C([C@@H]1CCCN1c1nc2c(c(Nc3cc(C4CCCC4)[nH]n3)n1)CCC2)N1CCC(F)(F)C1 [109b]
numeric value: 7.96
//
molecule: CC(=O)N1CCN(C(=O)[C@@H]2CCCN2c2nc3c(c(Nc4cc(C5CCCC5)n[nH]4)n2)CCC3)CC1 [137b]
numeric value: 5.72

P. O=C([C@@H]1CCCN1c1nc2c(c(Nc3cc(C4CCCC4)[nH]n3)n1)CCC2)N1CC(F)(F)C(F)(F)C1 [110b]
Q. CN(C(=O)[C@@H]1CCCN1c1nc2c(c(Nc3cc(C4CCCC4)n[nH]3)n1)CCC2)c1nccs1 [70b]
R. O=C([C@H]1CCCN1c1nc2c(c(Nc3cc(C4CCCC4)[nH]n3)n1)CCC2)N1CC(F)(F)C(F)(F)C1 [110a]
S. CN(C)C(=O)[C@H]1CCCN1c1nc2c(c(Nc3cc(C4CCOCC4)[nH]n3)n1)CCC2 [91a]
T. CN(C)C(=O)[C@@H]1CCCN1c1nc2c(c(Nc3cc(C4CCOCC4)[nH]n3)n1)CCC2 [91b]
[ask] Write the entries in order, lowest recorded pIC50 first. Please list the labels according to the requested order.
[reply] T, S, R, P, Q
(T: 5.20, S: 5.84, R: 6.72, P: 7.39, Q: 7.59)

----------
assayed system: Trk C (Homo sapiens)
Sequence (Q16288 32-839): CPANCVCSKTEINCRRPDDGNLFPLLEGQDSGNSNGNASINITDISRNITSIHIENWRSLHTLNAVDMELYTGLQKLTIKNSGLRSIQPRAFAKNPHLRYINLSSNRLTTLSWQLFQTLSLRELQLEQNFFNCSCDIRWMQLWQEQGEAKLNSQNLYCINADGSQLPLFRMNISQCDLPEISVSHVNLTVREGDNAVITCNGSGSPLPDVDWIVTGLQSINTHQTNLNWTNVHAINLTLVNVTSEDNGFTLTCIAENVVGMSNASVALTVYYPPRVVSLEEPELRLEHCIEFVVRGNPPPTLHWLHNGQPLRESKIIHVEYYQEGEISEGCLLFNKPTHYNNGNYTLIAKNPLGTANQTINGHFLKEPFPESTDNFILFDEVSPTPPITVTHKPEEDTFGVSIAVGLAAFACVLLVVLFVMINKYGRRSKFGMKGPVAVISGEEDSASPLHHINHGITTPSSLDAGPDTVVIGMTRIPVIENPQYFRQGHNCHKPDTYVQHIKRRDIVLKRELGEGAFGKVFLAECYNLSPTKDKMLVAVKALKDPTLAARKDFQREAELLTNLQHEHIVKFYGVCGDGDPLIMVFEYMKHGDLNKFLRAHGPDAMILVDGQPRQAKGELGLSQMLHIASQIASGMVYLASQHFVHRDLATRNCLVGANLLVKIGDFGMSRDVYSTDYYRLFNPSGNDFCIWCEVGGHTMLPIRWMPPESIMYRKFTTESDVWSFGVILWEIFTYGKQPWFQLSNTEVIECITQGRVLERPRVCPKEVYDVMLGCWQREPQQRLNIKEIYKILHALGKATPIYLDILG
result type: IC50 (nM)

molecule: CN(C)C(=O)[C@@H]1CCCN1c1nc2c(c(Nc3cc(C4CCOCC4)[nH]n3)n1)CCC2 [91b]
IC50 (nM): 362
//
molecule: O=C([C@@H]1CCCN1c1nc2c(c(Nc3cc(C4CCCC4)[nH]n3)n1)CCC2)N1CC(F)(F)C(F)(F)C1 [110b]
IC50 (nM): 0.8
//
molecule: CC(=O)N1CCN(C(=O)[C@@H]2CCCN2c2nc3c(c(Nc4cc(C5CCCC5)n[nH]4)n2)CCC3)CC1 [137b]
IC50 (nM): 110

A. CN1CCN(C(=O)[C@H]2CCCN2c2nc3c(c(Nc4cc(C5CCCC5)n[nH]4)n2)CCC3)CC1=O [136a]
B. CC(C)c1cc(Nc2nc(N3CCC[C@H]3C(=O)N3CCC(F)(F)C3)nc3c2CCC3)n[nH]1 [111b]
C. CN1CCN(C(=O)[C@H]2CCCN2c2nc3c(c(Nc4cc(C5CCCC5)[nH]n4)n2)CCC3)CC1 [134a]
D. CC1(C)CCN(C(=O)[C@H]2CCCN2c2nc3c(c(Nc4cc(C5CCCC5)n[nH]4)n2)CCC3)CC1 [141a]
[ask] # desc sort on IC50 across 4 molecules Sort and list the labels as requested.
[reply] D, A, C, B
(D: 146 nM, A: 83 nM, C: 44.4 nM, B: 0.7 nM)

Hello, the source for this data is patent US20170137410A1, in case you need it.
